Endpoint label: IC50

Request: Specify the recorded IC50 for "CNc1nc(N=NCc2ccc(OC)cc2)nc(Nc2ccccc2)n1" , system: Epidermal growth factor receptor (Homo sapiens).
Sequence (P00533 whole entry): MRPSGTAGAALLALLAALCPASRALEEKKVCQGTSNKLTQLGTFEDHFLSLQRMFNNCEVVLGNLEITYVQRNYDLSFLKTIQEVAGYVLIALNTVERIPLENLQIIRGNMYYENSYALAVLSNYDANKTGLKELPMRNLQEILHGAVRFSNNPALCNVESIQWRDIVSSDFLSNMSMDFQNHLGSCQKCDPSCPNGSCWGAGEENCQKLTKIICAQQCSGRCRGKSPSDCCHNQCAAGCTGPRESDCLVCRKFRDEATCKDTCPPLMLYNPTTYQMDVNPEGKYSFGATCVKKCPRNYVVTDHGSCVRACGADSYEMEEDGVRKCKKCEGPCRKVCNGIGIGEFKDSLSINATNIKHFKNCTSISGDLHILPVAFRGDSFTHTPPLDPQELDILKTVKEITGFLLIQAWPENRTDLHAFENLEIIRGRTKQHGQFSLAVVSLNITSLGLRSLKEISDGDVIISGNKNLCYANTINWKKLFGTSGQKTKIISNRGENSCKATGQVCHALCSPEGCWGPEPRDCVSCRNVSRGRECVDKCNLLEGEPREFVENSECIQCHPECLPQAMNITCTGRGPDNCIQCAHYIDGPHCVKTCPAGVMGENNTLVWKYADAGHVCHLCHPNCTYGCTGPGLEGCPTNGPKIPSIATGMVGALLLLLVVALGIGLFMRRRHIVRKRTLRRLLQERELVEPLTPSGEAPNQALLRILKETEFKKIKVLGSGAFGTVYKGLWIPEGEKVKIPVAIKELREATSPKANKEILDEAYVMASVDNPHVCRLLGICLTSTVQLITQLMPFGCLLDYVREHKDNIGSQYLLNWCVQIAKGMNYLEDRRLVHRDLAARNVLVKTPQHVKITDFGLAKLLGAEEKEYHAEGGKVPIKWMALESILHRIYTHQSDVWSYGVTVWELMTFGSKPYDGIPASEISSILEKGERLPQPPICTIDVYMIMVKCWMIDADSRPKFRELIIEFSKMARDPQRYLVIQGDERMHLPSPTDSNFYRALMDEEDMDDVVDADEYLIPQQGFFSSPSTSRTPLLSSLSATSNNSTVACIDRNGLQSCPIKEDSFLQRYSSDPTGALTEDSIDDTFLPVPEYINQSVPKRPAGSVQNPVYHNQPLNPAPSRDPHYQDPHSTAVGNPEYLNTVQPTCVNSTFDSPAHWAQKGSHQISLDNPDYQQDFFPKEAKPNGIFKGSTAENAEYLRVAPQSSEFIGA
Result: > 100 µM

Request: Please report IC50 with Epidermal growth factor receptor (Homo sapiens) for item "Cn1cc(NC(=O)CN=O)c(=O)n1-c1ccccc1" .
Result: > 100 µM

These entries and their values trace back to BindingDB's records for doi:10.1016/j.bmcl.2011.12.067.
